System: HCT116 colon cancer cells
Test: HCT116 cell viability (MTS assay)
Assay type: cell-based
Settings: inhibition of growth of HCT116 colon cancer cells; incubation time 48 h
Procedure: MCF-7 breast carcinoma cells were obtained from the National Cancer Institute drug screening laboratory. HCT116 cell line was grown in Dulbecco's modified Eagle's medium (DMEM). BX-PC3 cells were grown in RPMI-1640 medium. […] Cell viability of HCT116 and BX-PC3 cells was determined using the 3-(4,5-dimethylthiazol-2-yl)-5-(3-carboxymethoxyphenyl)-2-(4-sulfophenyl)-2H-tetrazolium (MTS) colorimetric assay.[38] […]

[
  {
    "Item smiles": "COc1ccc(-c2cn(-c3ccccn3)cc2C(=O)c2cc(OC)c(OC)c(OC)c2)cc1",
    "Tested target": "HCT116 colon cancer cells",
    "IC50": "28 nM"
  }
]

* * *

system: tubulin; assay: Inhibition of [3H]colchicine binding to tubulin; conditions: inhibition of [3H]colchicine binding; tubulin, [3H]colchicine, inhibitor at 1, 5 and 5 μM
Would you please tag the item T when its Colch. binding (% ± SD) is 30% or above, and F when it is below?

[
  {
    "Item smiles": "COc1cc(C(=O)c2cn(-c3ncccn3)cc2-c2ccc(N3CCCCC3)cc2)cc(OC)c1OC",
    "Category label": "T"
  },
  {
    "Item smiles": "COc1cc(C(=O)c2cn(-c3ncccn3)cc2-c2ccc(N(C)C)cc2)cc(OC)c1OC",
    "Category label": "T"
  },
  {
    "Item smiles": "COc1cc(OC)cc(-c2cn(-c3ccccn3)cc2C(=O)c2cc(OC)c(OC)c(OC)c2)c1",
    "Category label": "F"
  },
  {
    "Item smiles": "COc1ccc(-c2cn(-c3cccnc3)cc2C(=O)c2cc(OC)c(OC)c(OC)c2)cc1",
    "Category label": "F"
  },
  {
    "Item smiles": "COc1cc(C(=O)c2cn(-c3ccccn3)cc2-c2ccc(C)cc2)cc(OC)c1OC",
    "Category label": "T"
  },
  {
    "Item smiles": "COc1cc(C(=O)c2cn(-c3ncccn3)c3ccc(F)cc23)cc(OC)c1OC",
    "Category label": "T"
  },
  {
    "Item smiles": "COc1cc(C(=O)c2cn(-c3ncccn3)cc2-c2ccc(C)cc2)cc(OC)c1OC",
    "Category label": "T"
  },
  {
    "Item smiles": "COc1cc(C(=O)c2cn(-c3ncccn3)cc2-c2ccc([N+](=O)[O-])cc2)cc(OC)c1OC",
    "Category label": "T"
  },
  {
    "Item smiles": "COc1cc(C(=O)c2cn(-c3ccccn3)cc2-c2ccc(Cl)cc2)cc(OC)c1OC",
    "Category label": "T"
  },
  {
    "Item smiles": "COc1ccc(-c2cn(-c3ncccn3)cc2C(=O)c2cc(OC)c(OC)c(OC)c2)cc1",
    "Category label": "T"
  },
  {
    "Item smiles": "COc1cc(C(=O)c2cn(-c3ncccn3)cc2-c2ccc(Cl)cc2)cc(OC)c1OC",
    "Category label": "T"
  },
  {
    "Item smiles": "COc1cc(C(=O)c2cn(-c3ccccn3)cc2-c2ccc(C(F)(F)F)cc2)cc(OC)c1OC",
    "Category label": "F"
  },
  {
    "Item smiles": "COc1cc(C(=O)c2cn(-c3ncccn3)c3ccc(C#N)cc23)cc(OC)c1OC",
    "Category label": "T"
  },
  {
    "Item smiles": "COc1cc(C(=O)c2cn(-c3cccnc3)cc2-c2ccc(N(C)C)cc2)cc(OC)c1OC",
    "Category label": "F"
  },
  {
    "Item smiles": "COc1cc(C(=O)c2cn(-c3ncccn3)cc2/C=C/c2ccccc2)cc(OC)c1OC",
    "Category label": "T"
  },
  {
    "Item smiles": "COc1cc(C(=O)c2cn(-c3cccnc3)cc2-c2ccc(Cl)cc2)cc(OC)c1OC",
    "Category label": "F"
  }
]
